Sourced from the Human Domainome abundance scans (Beltran et al. 2025)

B1: Advillin, residues 785 to 819; numbered along this chain, O75366 (parent)
chain: LSEQDFVSVFGITRGQFAALPGWKQLQMKKEKGLF

# Variants of: B1
# assay explanation: abundance fitness (aPCA) (normalised: wild type 0, dead -1); higher = more abundant; growth selection in yeast, the domain comes from the species named
# stated conditions: Homo sapiens
measured property: abundance fitness

* LSEQDFVSVFGITMGQFAALPGWKQLQMKKEKGLF | -0.024
* LSEQDFVSVFGITRGQFAALMGWKQLQMKKEKGLF | -0.64
* LSEQDFVSVFGDTRGQFAALPGWKQLQMKKEKGLF | -0.442
* LSEQDFVSVLGITRGQFAALPGWKQLQMKKEKGLF | -0.392
* GSEQDFVSVFGITRGQFAALPGWKQLQMKKEKGLF | -0.051
* LSEQDFVSVFGITRGQFAALPGWKQLQMRKEKGLF | -0.023

*Q* What abundance fitness value was documented for this variant, "CSEQDFVSVFGITRGQFAALPGWKQLQMKKEKGLF" ?
*A* -0.279

*Q* What abundance fitness value was documented for this variant, "LSEQDFVSVFGITRGQFAALPGWKQLQMYKEKGLF" ?
*A* -0.221

*Q* What abundance fitness value was documented for this variant, "LSEQDFVSVFGITRGQFAHLPGWKQLQMKKEKGLF" ?
*A* -0.119

*Q* What abundance fitness value was documented for this variant, "LSEQDFVSVFGITRGQFAAPPGWKQLQMKKEKGLF" ?
*A* -0.759

*Q* What abundance fitness value was documented for this variant, "LSEQDFVSVFGITRGQFAALPGWKQLDMKKEKGLF" ?
*A* -0.3

*Q* What abundance fitness value was documented for this variant, "LSEQDFVSGFGITRGQFAALPGWKQLQMKKEKGLF" ?
*A* -0.286

*Q* What abundance fitness value was documented for this variant, "LSEQDFVSVMGITRGQFAALPGWKQLQMKKEKGLF" ?
*A* -0.305

*Q* What abundance fitness value was documented for this variant, "LSEQDFVSVFGITRGQFAALPGWKQLQMKKEKWLF" ?
*A* -0.541

*Q* What abundance fitness value was documented for this variant, "LSEQDFVSVFGINRGQFAALPGWKQLQMKKEKGLF" ?
*A* -0.26
